# target system: PPARδ (UniProt Q03181)
# assay method text: PPARδ GAL4 chimera transactivation assay in CV-1 cells
# reported conditions: transient transfection, luciferase reporter, 20-24 hours, read-out: PPAR delta
readout: EC50

# mol smiles, EC50
rows = [
    ("C[C@@H]1CN(c2ccc(OC(F)(F)F)cc2)C[C@H](C)N1S(=O)(=O)c1cccc2c1C[C@@H](C(=O)O)C2", "< 5 µM"),
]

Please look at the following compound next.
Problem: Give its EC50 value. Item: C[C@@H]1CN(Cc2ccc(OC(F)(F)F)cc2)C[C@H](C)N1S(=O)(=O)c1cccc2c1C[C@@H](C(=O)O)C2
Solution: < 5 µM
